This listing pairs compounds with measured TGI.
test system: SW-620 colon; test: NCI tumour cell line growth inhibition, 48 h
Response body: numeric value in µM, unit text excluded.

{"compound": "Cc1cccc(CC(C)(C)C)c1NC(=O)C(=O)C(C(=O)c1ccc2ccccc2c1)C1OC(=O)c2ccccc21 (stereo not given)", "TGI [µM]": 38.7}

Then this compound:
Asked: Query TGI on SW-620 colon for C=C(C)[C@@H]1CCC[C@]2(C(=O)O)CC[C@]3(C)[C@@H](CC[C@@H]4[C@@]5(C)C/C(=C/c6ccncc6)C(=O)C(C)(C)[C@@H]5CC[C@]43C)[C@@H]12
Given back: 9.6

* * *

This listing pairs compounds with measured log10(TGI).
tested on: SK-MEL-5 melanoma; test: NCI tumour cell line growth inhibition, 48 h
Please keep in mind that the values are log10 of TGI expressed in µM.

Worked cases, log10(TGI) given:
{"compound": "COC(=O)C(Cc1ccccc1)NC(=O)CCCNC(=O)OCc1ccccc1 (centres undefined)", "systemTested": "SK-MEL-5 melanoma", "log10(TGI)": 1.67}
{"compound": "COc1cc(C(=O)/C=C/c2c(C(F)(F)F)nc3sccn23)cc(OC)c1OC", "systemTested": "SK-MEL-5 melanoma", "log10(TGI)": 0.47}
{"compound": "COC(=O)C1(Cc2ccccc2)Cc2ccccc2C1=O (centres undefined)", "systemTested": "SK-MEL-5 melanoma", "log10(TGI)": 1.64}
{"compound": "C[C@@H](C[C@@H](O)[C@H](O)C(C)(C)O)[C@H]1CC=C2[C@]3(C)[C@H](O)C[C@H]4C(C)(C)[C@H](O)CC[C@]4(C)[C@H]3CC[C@@]21C", "systemTested": "SK-MEL-5 melanoma", "log10(TGI)": 1.45}

Then this compound:
Asked: // query log10(TGI) value for entry C=CC(C)(C)n1cc(C2=C(O)C(=O)C(c3cn(C(C)(C)C=C)c4ccccc34)=C(OC(C)=O)C2=O)c2ccccc21
Given back: 0.27

* * *

test system: SNB-75 CNS; test: NCI tumour cell line growth inhibition, 48 h
This listing pairs compounds with measured GI50.

Worked cases, GI50 given:
{"compound": "C[C@]12CC[C@@H]3c4ccc(O)cc4CC[C@H]3[C@@H]1CC[C@@H]2NS(=O)(=O)c1ccc(-c2ccccc2)cc1", "GI50": "3.5 µM"}
{"compound": "COc1ncnc2c(-c3ccco3)cn(COCc3ccccc3)c12", "GI50": "12.7 µM"}
{"compound": "CCN(CC)CCOc1ccc(C2=C(c3ccccc3)CCc3cc(OC)ccc32)cc1", "GI50": "1.4 µM"}
{"compound": "CC1(C)CC2(C)OC2C2(C1)N=NC(=Nc1ccccc1)O2 (configuration not stated)", "GI50": "16.4 µM"}
{"compound": "CCCCCCCCCCCCNC(=O)[C@H]1CSC(c2ccc(OC)c(F)c2)N1 (some centres not stated)", "GI50": "0.468 µM"}

Then this compound:
Asked: // query GI50 value for entry CCOC(=O)Cc1csc(NC(=O)C(OC(=O)c2ccc(N)cc2)c2ccccc2)n1 (configuration not stated)
Given back: 45.9 µM

* * *

system: NCI-H23 lung; assay: NCI tumour cell line growth inhibition, 48 h
endpoint: TGI

Worked cases, TGI given:
{"molSmiles": "Cc1ns/c(=N\\C(=S)N(C)C)n1C", "TGI": "> 100 µM"}
{"molSmiles": "COc1cc(/C=C\\c2cccnc2Nc2ccccc2)cc(OC)c1OC", "TGI": "> 100 µM"}
{"molSmiles": "CCN(CC)c1ccc(C(=C2C=CC(=[N+](CC)CC)C=C2)c2ccccc2)cc1", "TGI": "0.0929 µM"}
{"molSmiles": "Nc1ccc2c(c1)CN1C(=O)c3ccccc3C1=N2", "TGI": "> 125 µM"}
{"molSmiles": "C/C(=N\\NC(=S)N1CCC(C2CCN(C(=S)N/N=C(\\C)c3ccccn3)CC2)CC1)c1ccccn1", "TGI": "> 100 µM"}

Then this compound:
Asked: Query TGI on NCI-H23 lung for CC(C)n1nc(C#Cc2cccc(NC(=O)c3cccc(C(F)(F)F)c3)c2)c2c(N)ncnc21
Given back: 22.8 µM

* * *

system: SR leukemia; assay: NCI tumour cell line growth inhibition, 48 h
This listing pairs compounds with measured TGI.

{"compound": "Cc1cc(S(=O)(=O)NC(=NCC(=O)NN)NN)c(S)cc1Cl", "val": "> 10 µM"}

Asked: // query TGI value for entry COc1cc2c(cc1OC)[C@H]1C(=O)c3cc4c(cc3[C@H]1N(C)C2=O)OCO4
Given back: > 100 µM

Asked: Next entry: O=C(CN=Cc1cccs1)CSC(c1ccccc1)c1ccccc1
Given back: 54.1 µM

Asked: Next entry: O=C1N2CCc3c([nH]c4ccccc34)C23CC2CCCC12S3 (stereo not given)
Given back: > 50 µM

Asked: Next entry: CCN1CC2(C)CC[C@@H](OC)C34[C@@H]2[C@H](OC(C)=O)C2(OCO[C@@]25C[C@H](OC)C2C[C@]3(O)[C@@H]5[C@H]2O)[C@H]14
Given back: > 100 µM

* * *

system: SK-MEL-5 melanoma; test: NCI tumour cell line growth inhibition, 48 h
This listing pairs compounds with measured TGI.
Response body: numeric value in µM, unit text excluded.

Worked cases, TGI given:
{"compound": "O=C(CCN1CCCCC1CO)Nc1ccc2c(c1)C(=O)c1ccc(NC(=O)CCN3CCCCC3CO)cc1C2=O (stereo not given)", "endpoint": "TGI", "unitSpec": "µM", "val": 29}
{"compound": "Cc1ccc(OCCCCCCNCCO)c(C)c1", "endpoint": "TGI", "unitSpec": "µM", "val": 22.4}

Asked: // query TGI value for entry C=C1C(=O)O[C@H]2C(=O)[C@H](C)CCC[C@@](C)(O)/C=C\C[C@@]3(C)O[C@@H]3C[C@@H]12
Given back: 29

Asked: Next entry: Nc1ncnc2c1ncn2Cc1ccc(C23CC4CC(CC(C4)C2)C3)c(O)c1
Given back: 88.2

Asked: Next entry: C[C@]12CC[C@@H]3c4ccc(O)cc4CC[C@H]3[C@@H]1CC[C@@H]2NS(=O)(=O)c1ccc(-c2ccccc2)cc1
Given back: 3.26

* * *

tested on: 786-0 renal; experiment: NCI tumour cell line growth inhibition, 48 h
TRUE means recorded TGI is 6 µM or above; FALSE means it is below 6 µM.

Below are worked cases with known answers.
{"molecule": "CC(C)=C1CCC(CN2CCCC2)C1=O (stereo not given)", "label": "TRUE"}
{"molecule": "COc1ncnc2c(-c3ccco3)cn(COCc3ccccc3)c12", "label": "TRUE"}
{"molecule": "BrCC[P+](c1ccccc1)(c1ccccc1)c1ccccc1", "label": "TRUE"}
{"molecule": "O=c1c2cc(F)ccc2sc2c(NCCCN3CCCC3)nc3ccccc3c12", "label": "FALSE"}
{"molecule": "CCC1(N2C(=O)c3c(F)c(F)c(F)c(F)c3C2=O)C(=O)NC(=O)N(c2ccccc2)C1=O (stereo not given)", "label": "TRUE"}
{"molecule": "CCOc1cc(C=O)ccc1O", "label": "TRUE"}
{"molecule": "CCCCCCN1C(=O)CN=C1Nc1ccc2cc3ccc(NC4=NCC(=O)N4CCCCCC)cc3nc2c1", "label": "FALSE"}
{"molecule": "COc1ccc(N(Cc2cc(OC)c(OC)c(OC)c2)C2OC(=O)c3ccccc32)cc1 (stereo not given)", "label": "TRUE"}

Asked: Check this molecule for TGI at or above 6 µM: O=C(OCc1nc2ccc(Br)cc2c(=O)n1-c1ccccc1)c1ccccc1O
Given back: TRUE

Asked: Next entry: COc1cc(C2c3cc4c(cc3[C@@H](Nc3cccc(O)c3)C3COC(=O)[C@H]23)OCO4)cc(OC)c1O (stereo not given in full)
Given back: FALSE

* * *

This listing pairs compounds with measured GI50.
test system: MALME-3M melanoma; assay: NCI tumour cell line growth inhibition, 48 h
Where a SMILES comes first, the peptide text is derived from it. The star is where a group is joined. Palmitoyl = CCCCCCCCCCCCCCCC(=O)*

{"compound": "Cc1csc(Nc2nc(-c3cccc(Cl)c3)nc(C(Cl)(Cl)Cl)n2)n1", "GI50": "> 33.3 µM"}
{"compound": "CCCCCCCCCCCCCCCC(=O)NC(CCCCN)C(=O)NCC(=O)NC(Cc1ccccc1)C(=O)N1CCCC1C(=O)NC(CO)C(=O)NC(Cc1ccc(O)cc1)C(=O)NC(CCCCN)C(=O)NC(CC(C)C)C(=O)NC(CCCN=C(N)N)C(=O)N1CCCC1C(=O)NCC(N)=O (stereo not drawn) (Palmitoyl-KGFPSYKLRPG-NH2; configuration not given here)", "GI50": "> 100 µM"}
{"compound": "CCSc1nc(N)c2cnn(C)c2n1", "GI50": "33.6 µM"}

Asked: // query GI50 value for entry O=c1[nH]c2cc(O)ccc2n2cc3c(F)cccc3c12
Given back: 3.96 µM

Asked: Next entry: C#Cc1cccc(Nc2ncnc3ccc(-c4cncc(NS(C)(=O)=O)c4)cc23)c1
Given back: 1.11 µM

Asked: Next entry: COC(=O)Nc1nc2ccc(Sc3ccc(NC(=O)Nc4cc(C(F)(F)F)ccc4F)cc3)cc2[nH]1
Given back: 2.99 µM

Asked: Next entry: CCOC(=O)C1=C(c2ccccc2)N(Cc2ccccc2)C2(O)C=CC(=O)C3C(=O)N(c4ccccc4)C(=O)C132 (stereo not drawn)
Given back: 1.79 µM

Asked: Next entry: CN1CCN(C(=S)SCN2C(=O)c3ccccc3S2(=O)=O)CC1
Given back: 23.1 µM
